# target: T1, human IL-17A/F heterodimer (human, UniProt Q16552 24-155; Q96PD4 31-163, limits assumed, biotinylated with Sulfo-NHS-LC-Biotin in the AlphaScreen assays only)
# T1 construct: also called hIL-17A/F
# T1 sequence (Q16552 24-155 limits assumed, chain 1 of 2): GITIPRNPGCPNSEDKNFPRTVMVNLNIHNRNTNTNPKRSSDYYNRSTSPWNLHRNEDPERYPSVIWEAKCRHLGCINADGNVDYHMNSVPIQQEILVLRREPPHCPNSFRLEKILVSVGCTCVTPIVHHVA
# T1 sequence (Q96PD4 31-163 limits assumed, chain 2 of 2): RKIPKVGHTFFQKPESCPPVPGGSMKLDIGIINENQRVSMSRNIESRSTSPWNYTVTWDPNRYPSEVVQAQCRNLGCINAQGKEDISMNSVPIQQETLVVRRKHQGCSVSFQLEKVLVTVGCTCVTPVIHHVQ
# test_method_notes: SPR Biacore, hIL-17A/F on chip; purified protein
Entries are sorted into classes by koff as follows: A: < 0.0001 s⁻¹; B: ≥ 0.0001 s⁻¹ and < 0.003 s⁻¹; C: ≥ 0.003 s⁻¹

Consider the following illustrative entries.
08A08 (VHH, Class 3 Nanobody (anti-IL-17F); not shown: c-myc, His6 tag) VHH: EVQLVESGGGLVQAGGSLRLSCAASGRTFRPYRMGWFRRAPGKAREFVTLISWSSGRTSYADSVKGRFTISRDSAKNAVYLQMDNLKPEDTAVYFCAVDLSGDAVYDSWGQGTQVTVSS
C
09G10 (VHH, Class 2 Nanobody (anti-IL-17A and IL-17A/F); not shown: c-myc, His6 tag) VHH: EVQLVESGGGLVQAGGSLRLSCAASDSVFTAKAVGWYRQPPGLQREWVAIITSGGKTNYADSSVKGRFTVSVDKVKNTVTLQMNSLKPEDTAVYYCYAQWMGRDYWGQGTQVTVSS
B
11A06 (VHH, Class 2 Nanobody (anti-IL-17A and IL-17A/F); not shown: c-myc, His6 tag) VHH: EVQLVESGGGLVQPGESLRLSCKASGFSLDYYALGWFRQAPGKEREGISCITSSDASAYYTDSVKGRFTISRDNSKNTVYLQMNSLKTEDTAIYYCAAALLTCSSYYDAYTYWGQGTQVTVSS
A
13B03 (VHH, Class 4 Nanobody (cross-reactive: anti-IL-17A, IL-17F and IL-17A/F); also called IL17MS13B03; not shown: c-myc, His6 tag) VHH: EVQLVESGGGSVQAGDSLRLSCAASGRANSINWFGWFRQTPGKEREFVAGIRWSDAYTEYANSVKGRFTISRDNAKNTVDLQMDSLKPEDTAVYYCVLDLSTVRYWGQGTQVTVSS
A
04F09 (VHH, Class 2 Nanobody (anti-IL-17A and IL-17A/F); not shown: c-myc, His6 tag) VHH: EVQLVESGGGLVQPGGSLRLSCAASGRTFSTHAMGWFRQAPGKERDFVAAIRWSDGSSFYADSVKGRFTISRDNAKNAVYLQSNSLKSEDTAVYVCYADVEGPTALHKYWGRGTQVTVSS
C
04B10 (VHH, Class 2 Nanobody (anti-IL-17A and IL-17A/F); not shown: c-myc, His6 tag) VHH: EVQLVESGGGLVQAGGSQSLSCVASGTIVNINVMGWYRQAPGKQRELVALITSGGGTTYGDSVKGRFTISIDNAKNTVILQMNSLEAEDTAVYYCAAEIGYYSGGTYFSSEAHWGQGTQVTVSS
B

Prompt: State the band of 10A04 (VHH, Class 4 Nanobody (cross-reactive: anti-IL-17A, IL-17F and IL-17A/F); not shown: c-myc, His6 tag) VHH: EVQLVESGGGLVQPGGSLRLSCAASGFTFSSYWMYWVRQAPGKGLEWISALAPGGGNRYYAESVNGRFTISRDNAKNSLYLQMNSLKSEDTAVYYCAKDHNVGYRTGEYDYGGQGTQVTVSS
Response: C

Prompt: Field entry: 12A09 (VHH, Class 3 Nanobody (anti-IL-17F); not shown: c-myc, His6 tag) VHH: EVQLVESGGGLVQPGGSLRLSCAASGFTFSSYRMAWVRQAPGKGLEWVSSTSTGGEMTNYADSVKGRFTISRDNAKNTLHLQMNSLKPEDTALYYCAAGTSAGHWSTGGQGTQVTVSS
Response: C

Prompt: Proceed to 13E02 (VHH, Class 4 Nanobody (cross-reactive: anti-IL-17A, IL-17F and IL-17A/F); also called IL17MS13E02; not shown: c-myc, His6 tag) VHH: EVQLVESGGGLVQAGGSLRLSCAASGRTYDAMGWLRQAPGKEREFVAAISGSGDDTYYADSVKGRFTISKDNAGITMYLQMNSLKPEDTAVYYCATRRGLYYVWDSNDYENWGQGTQVTVSS
Response: A

Prompt: Another binder to check: 04G01 (VHH, Class 2 Nanobody (anti-IL-17A and IL-17A/F); also called IL17MS04G01; not shown: c-myc, His6 tag) VHH: EVQLVESGGGLVQAGGSQRLSCTASGTIVNIHVMGWYRQAPGKQRELVALIFSGGSADYADSVKGRFTISRDNAKNTVYLEMNSLKAEDTAVYYCAAEIGYYSGGTYYSSEAHWGQGTQVTVSS
Response: B

Prompt: // repeat for 02A10 (VHH, Class 2 Nanobody (anti-IL-17A and IL-17A/F); not shown: c-myc, His6 tag) VHH: EVQLVESGGGLVQPGGSLRLSCAASGFALGYYAIGWFRQAPGKEREGVSCDSSSDGRTYYGDSVKGRFTISTDSAKNTVYLQMNSLKPEDTAVYYCATCTDFEYDYWGQGTQVTVSS and report
Response: B

Prompt: Also check 17C01 (VHH, Class 4 Nanobody (cross-reactive: anti-IL-17A, IL-17F and IL-17A/F); not shown: c-myc, His6 tag) VHH: EVQLVESGGRLVQAGGSLRLPCAASGRTFTSYPMGWFRQAPGKEREFVAAISMSGDDAAYADFVRGRFTISRDDARNTVYLHMTSLKPEDTAVYYCAARTSYDGTYDYIDDYSYWGQGTQVTVSS
Response: B

Prompt: Now consider 18B05 (VHH, Class 4 Nanobody (cross-reactive: anti-IL-17A, IL-17F and IL-17A/F); not shown: c-myc, His6 tag) VHH: EVQLVKSGGGLVQPGGSLRLSCAASGGTFSLFAMGWFREAPGKEREFVAAIRWSDGSSYYADSVKGRFTISRDNAKNAVHLQSNSLKSEDTAVYYCYADVQGGLHRYWGQGTQVTVSS .
Response: B

These measurements were taken from patent US20210130452A1.
